- MEASUREMENT TARGET: UniProt O77396
- ASSAY NOTES: IC50 for competition of protein binding to Kinobeads;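 further: native unpurified kinases from lysate captured on beads bearing immobilized kinase inhibitors, with bead-bound kinases quantified by mass spectrometry across compound doses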
- CONDITION DESCRIPTION: assay detail: Kinobeads competition in P. falciparum blood-stage lysate
MEASUREMENT KIND: IC50

Using the record for O=c1[nH]c2ccc(Cl)cc2c(NC2CN3CCC2CC3)c1-c1nc2ccccc2[nH]1 (stereo unspecified) , report its IC50.
> 20 µM

###

- MEASUREMENT TARGET: UniProt C0H5J9
- ASSAY NOTES: IC50 for competition of protein binding to Kinobeads
- CONDITION DESCRIPTION: assay detail: Kinobeads competition in P. falciparum blood-stage lysate
pIC50: −log10 of the molar value.
MEASUREMENT KIND: pIC50

Please provide the recorded pIC50 for O=c1[nH]c2ccc(Cl)cc2c(NC2CN3CCC2CC3)c1-c1nc2ccccc2[nH]1 (stereo unspecified) [CHIR-124] , tested on UniProt C0H5J9.
< 4.70
